The measured values listed here are drawn from the supplement of paper PMC6555819.

- System: PPARa:RXRa (NR concentration 270 nM, RXRa partner concentration 90 nM)
- Method description: PBM binding z-score (relative to random genomic background probes); higher = stronger binding; sequences stand for … in GC…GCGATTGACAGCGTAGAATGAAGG
Quantity kind: PBM binding z-score
Answers are plain numbers.

Task: What PBM binding z-score value was documented for this sequence, GCTGCTACGTCAACTGATGGTCAGCTAAAGCTCG ?
Result: -0.483

Task: Tell me the measured PBM binding z-score of CGTCAAAGTTCAACTCAGGTAACGTAAAGCACGC , please.
Result: 5.08

Task: Quick one: PBM binding z-score of CGTTACGGGTCACTGACAGGTTATAGCATTTGGA ?
Result: 5.54

Task: Return reported PBM binding z-score; argument: CCTATTAGTTGACCATAAGGGCAATCGAAGCTCG
Result: 0.456

Please supply PBM binding z-score for each of the following items, keeping them in order.
1. CAAACTAGGTCACGAAAGGTTAAAGTCGAATGAC
2. GCGACTGGGACATCAGCAGGTTACCATAACTTAA
3. TGAATGCGGTTATAAGATCAGGGAACGTTGCAAA
4. CCTCGGAGGACAACAGGAGGTCAGATCTGCCAGA

Result:
1: 6.04; 2: 0.248; 3: -0.272; 4: 1.91

Consider the following items and state reported PBM binding z-score for each.
1. CCTTACGGGTCACTGACAGTTTATAGCATTTGGA
2. TAGCCTAGGTCAGATCGGGCCAGTGTACGCTATA
3. CAAACTAGGTCACCAAAGGTCAAAGTCGAATGAC
4. TTACCAAGGTGAGCTGAGGTCGTTAATCCAACTC

Result:
5.18
1.49
6.74
1.4
